test_system: Nucleic Acid
protocol_description: Dissociation constant using ethidium-bromide displacement test
pKd: −log10 of the molar value. Numbered stars: 1 amine (or outer) side, 2 acyl side, 3 side chain; on linkers, the order of the positions; unused ones are H or OH. Square brackets hold non-standard residues; d marks the D form. Peptide text beside a SMILES is read from it. Ala(2,4-dioxoquinazolin-3-yl) = N[C@@H](Cn1c(=O)[nH]c2ccccc2c1=O)C(=O)O; Ala(uracil-1-yl) = N[C@@H](Cn1ccc(=O)[nH]c1=O)C(=O)O; X2 = Cc1cn(C[C@H](N[*:1])C(=O)[*:2])c(=O)[nH]c1=O; X3 = Nc1ccn(C[C@H](N[*:1])C(=O)[*:2])c(=O)n1; 2Thi = N[C@@H](Cc1cccs1)C(=O)O; Sar = CNCC(=O)O
We begin with a simple list: items and their reported pKd.

molecule: CC(=O)N[C@@H](CCCN=C(N)N)C(=O)N[C@@H](Cn1ccc(=O)[nH]c1=O)C(=O)N(C)CC(=O)N[C@@H](Cn1c(=O)[nH]c2ccccc2c1=O)C(=O)N[C@@H](Cn1c(=O)[nH]c2ccccc2c1=O)C(=O)N[C@@H](Cn1c(=O)[nH]c2ccccc2c1=O)C(=O)N[C@@H](CCCN=C(N)N)C(N)=O (Ac-R[Ala(uracil-1-yl)][Sar][Ala(2,4-dioxoquinazolin-3-yl)][Ala(2,4-dioxoquinazolin-3-yl)][Ala(2,4-dioxoquinazolin-3-yl)]R-NH2)
pKd: 4.04
//
molecule: CC(=O)N[C@@H](CCCN=C(N)N)C(=O)N[C@@H](Cn1ccc(=O)[nH]c1=O)C(=O)N(C)CC(=O)N[C@@H](Cn1c(=O)[nH]c2ccccc2c1=O)C(=O)N[C@@H](Cn1c(=O)[nH]c2ccccc2c1=O)C(=O)N[C@@H](Cc1cccs1)C(=O)N[C@@H](CCCN=C(N)N)C(N)=O (Ac-R[Ala(uracil-1-yl)][Sar][Ala(2,4-dioxoquinazolin-3-yl)][Ala(2,4-dioxoquinazolin-3-yl)][2Thi]R-NH2)
pKd: 3.64
//
molecule: CC(=O)N[C@@H](CCCN=C(N)N)C(=O)N[C@@H](Cn1ccc(=O)[nH]c1=O)C(=O)N(C)CC(=O)N[C@@H](Cn1c(=O)[nH]c2ccccc2c1=O)C(=O)N[C@@H](Cn1c(=O)[nH]c2ccccc2c1=O)C(=O)N[C@@H](Cn1ccc(N)nc1=O)C(=O)N[C@@H](CCCN=C(N)N)C(N)=O (Ac-R[Ala(uracil-1-yl)][Sar][Ala(2,4-dioxoquinazolin-3-yl)][Ala(2,4-dioxoquinazolin-3-yl)][X3]R-NH2)
pKd: 3.20
//
molecule: CC(=O)N[C@@H](CCCN=C(N)N)C(=O)N[C@@H](Cn1ccc(=O)[nH]c1=O)C(=O)N(C)CC(=O)N[C@@H](Cn1c(=O)[nH]c2ccccc2c1=O)C(=O)N[C@@H](Cn1c(=O)[nH]c2ccccc2c1=O)C(=O)N[C@@H](Cn1ccc(=O)[nH]c1=O)C(=O)N[C@@H](CCCN=C(N)N)C(N)=O (Ac-R[Ala(uracil-1-yl)][Sar][Ala(2,4-dioxoquinazolin-3-yl)][Ala(2,4-dioxoquinazolin-3-yl)][Ala(uracil-1-yl)]R-NH2)
pKd: 3.21
//
molecule: CC(=O)N[C@@H](CCCN=C(N)N)C(=O)N[C@@H](Cn1ccc(=O)[nH]c1=O)C(=O)N(C)CC(=O)N[C@@H](Cn1c(=O)[nH]c2ccccc2c1=O)C(=O)N[C@@H](Cn1c(=O)[nH]c2ccccc2c1=O)C(=O)N[C@@H](Cn1cc(C)c(=O)[nH]c1=O)C(=O)N[C@@H](CCCN=C(N)N)C(N)=O (Ac-R[Ala(uracil-1-yl)][Sar][Ala(2,4-dioxoquinazolin-3-yl)][Ala(2,4-dioxoquinazolin-3-yl)][X2]R-NH2)
pKd: 3.31

Values compiled from ChEMBL document CHEMBL1136420.
